These entries and their values trace back to the RNAGym collection of RNA variant scans (doi:10.7554/elife.80360).

Recorded self-cleavage for the following variants
B1: CPEB3 Ribozyme (parent)
chain: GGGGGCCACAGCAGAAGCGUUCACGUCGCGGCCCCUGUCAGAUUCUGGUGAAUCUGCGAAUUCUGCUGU

Variants of: B1
assay-method-text: self-cleavage, relative activity (ratio to wild type); higher = more cleavage; co-transcriptional
measure-name: self-cleavage

sequence-record: GGGGGCCACAGCAGAAGCGUUCACGUCGCGGCCCAUGUGAGAUUCUGGUGAAUCUGCGAAUUCUGCUGU [C35A C39G]
assay-result: 0.3
//
sequence-record: GGGGGCCACAGCAGAUGCGUUCACGUCGCGGCCCCUGUCAGAUUCUGAUGAAUCUGCGAAUUCUGCUGU [A16U G48A]
assay-result: 0.862
//
sequence-record: GGGGCCCACAGCAGAAGCGUUCACGUCGCGGCCCCUGUCAGAUUCUGGUGAAUCUGCGGAUUCUGCUGU [G5C A59G]
assay-result: 0.229
//
sequence-record: GGGGGCAACAGCAGAAGCGUUCACGUCGCGGCCCCUGUCAGACUCUGGUGAAUCUGCGAAUUCUGCUGU [C7A U43C]
assay-result: 0.388
//
sequence-record: GGGGGCCACAGCAAAAGGGUUCACGUCGCGGCCCCUGUCAGAUUCUGGUGAAUCUGCGAAUUCUGCUGU [G14A C18G]
assay-result: 0.208
//
sequence-record: GGGGGCCACAGCAGAAGCGUUCAGGUCGCGGCCCCUGUCAGAUUCUGGUGAAUAUGCGAAUUCUGCUGU [C24G C54A]
assay-result: 0.267
//
sequence-record: GGGGGCCACAGCAGAAGCGUUCACGUCGCGGCCCCUGUCAGAUUCUGGUGAAGCUGCGAAUUCUUCUGU [U53G G65U]
assay-result: 0.606
//
sequence-record: GGGGGCCACAGCAGAAGCGUUCACGUCGCGGCCCCUGUCAGAUUCUGGUGAAUCUGGGGAUUCUGCUGU [C57G A59G]
assay-result: 0.375
//
sequence-record: GGGGGCCACAGCAGAAGCGUUCACGUCGCGACCCCUGUCAGAUUCUGGUGAAUUUGCGAAUUCUGCUGU [G31A C54U]
assay-result: 0.793
//
sequence-record: GAGGGACACAGCAGAAGCGUUCACGUCGCGGCCCCUGUCAGAUUCUGGUGAAUCUGCGAAUUCUGCUGU [G2A C6A]
assay-result: 0.044
//
sequence-record: GGGGGCCACAGCAGCAGCGUUCACGUCGCGGCCCCUGUGAGAUUCUGGUGAAUCUGCGAAUUCUGCUGU [A15C C39G]
assay-result: 0.596
//
sequence-record: GGGGGCCACAGCAGAAGCGUUGACGUCGCGGCCCCUGUCAGAGUCUGGUGAAUCUGCGAAUUCUGCUGU [C22G U43G]
assay-result: 0.133
//
sequence-record: GGGGGCCACAGCAGAAGCGUACACGUCGCGGCCCCUGUCAGAUUCUGGUGAAUCUGUGAAUUCUGCUGU [U21A C57U]
assay-result: 0.447
//
sequence-record: GGGGGCCGCAGCAGAAGGGUUCACGUCGCGGCCCCUGUCAGAUUCUGGUGAAUCUGCGAAUUCUGCUGU [A8G C18G]
assay-result: 0.0214
//
sequence-record: GGGGGCCACAGCAGAAGCGUUUACGUCGCGGCCCCUGUCAGAUUCUGGUAAAUCUGCGAAUUCUGCUGU [C22U G50A]
assay-result: 0.355
//
sequence-record: GGGGGCCACAGCAGAUGCGUUCACGACGCGGCCCCUGUCAGAUUCUGGUGAAUCUGCGAAUUCUGCUGU [A16U U26A]
assay-result: 0.221
//
sequence-record: GGGGGCCACAGCAGAAGCGUUCACGUCGCGGCCCCUGUCGGAUUCAGGUGAAUCUGCGAAUUCUGCUGU [A40G U46A]
assay-result: 0.971
//
sequence-record: GGGGGCCACAGCAAAAGCGUUCACGUCGCGGCCCCUGUCAGAUACUGGUGAAUCUGCGAAUUCUGCUGU [G14A U44A]
assay-result: 0.538
//
sequence-record: GGGGGCCACAGCAGAAGCGUUCAGGUCGCGGCCCCUGUCAGAUUCUGGUGAAUCUGCGAAUUAUGCUGU [C24G C63A]
assay-result: 0.237
//
sequence-record: GGGGGCCACAGCAGAAGCGUUCACGUCGCGGCAACUGUCAGAUUCUGGUGAAUCUGCGAAUUCUGCUGU [C33A C34A]
assay-result: 0.331
//
sequence-record: GGGGCCCAGAGCAGAAGCGUUCACGUCGCGGCCCCUGUCAGAUUCUGGUGAAUCUGCGAAUUCUGCUGU [G5C C9G]
assay-result: 0.487
//
sequence-record: GGGGGCCACAGCAGAAGCGUGCACGUCGCGGCCCCUGUCAGAUUCUGGUGAAUCUGCGAAUUCUGCUGG [U21G U69G]
assay-result: 0.823
